- Method Notes: Selectivity index, ratio of CC50 for mock-infected human MT4 cells to EC50 for HIV1 RES056 RES056 containing reverse transcriptase K103N + Y181C mutant infected in human MT4 cells
- Type: toxicity, cell-based
- Condition Parameters: read-out: Selectivity Index
// values below are reported selectivity ratio
Lab note: record the figure alone, no unit after it.

{"Record Smiles": "N#Cc1cc(Cl)cc(Oc2c(C(F)(F)F)ccn(CC(=O)Nc3cn[nH]c3)c2=O)c1", "selectivity ratio": 134}

Ask | What does the data say about its selectivity ratio? Entry: N#Cc1cc(Cl)cc(Oc2c(C(F)(F)F)ccn(CC(=O)Nc3ccc([N+](=O)[O-])cc3)c2=O)c1
Reply | 1
